Source: PubChem BioAssay (NCI)

system: CCRF-CEM leukemia; assay: NCI tumour cell line growth inhibition, 48 h
Assignment: determine reported TGI for the given compounds.

INSERT INTO measurements (compound, result) VALUES
  ('Cc1cc(C)cc(Oc2cccc(-c3c(C)nnn3C3CCN(CCN(C)C)CC3)n2)c1', '5.13 µM'),
  ('COc1cccc2nc(Nc3ccc(F)c(NC(=O)c4ccc(CN5CCN(C)CC5)c(C(F)(F)F)c4)c3)ccc12', '25.6 µM'),
  ('O=C(c1ccc(O)cc1)C1[C@H](c2ccc(Cl)cc2)[C@@H](c2ccccc2)NC12C(=O)Nc1ccccc12 (some centres undefined)', '19.8 µM');

Attention now turns to another entry.
Prompt: Value lookup for TGI; key = `O=C(CSc1nc2ccccc2c(=O)n1-c1ccc(Cl)cc1)Nc1ccc(-c2nc3ccc([N+](=O)[O-])cc3[nH]2)cc1`
Response: > 100 µM

---

tested on: HCC-2998 colon; assay: NCI tumour cell line growth inhibition, 48 h
EXPERIMENTAL READOUT: TGI (µM)
One number for each entry, in µM.

Study these solved cases before continuing.
INSERT INTO measurements (cpd_smiles, system_tested, unit_spec, quantitative_readout) VALUES
  ('O=c1oc2ccc(-c3ccc(F)cc3F)cc2c(=O)n1-c1ccc(F)cc1', 'HCC-2998 colon', 'µM', 13.9),
  ('COc1cccc2nc(Nc3ccc(F)c(NC(=O)c4ccc(CN5CCN(C)CC5)c(C(F)(F)F)c4)c3)ccc12', 'HCC-2998 colon', 'µM', 33.2),
  ('Cc1cc(C)cc(Oc2cccc(-c3c(C)nnn3C3CCN(CCN(C)C)CC3)n2)c1', 'HCC-2998 colon', 'µM', 17.8);

Attention now turns to another entry.
Prompt: Notebook entry, HCC-2998 colon assay: TGI of `N#Cc1ccc(/C=N/NC(=O)c2[nH]c3ccc(Br)cc3c2-c2ccccc2)o1` = ?
Response: 2.62

---

tested on: MDA-MB-468 breast; test: NCI tumour cell line growth inhibition, 48 h
Assignment: determine reported TGI for the given compounds.

Study these solved cases before continuing.
INSERT INTO assay_data (cpd_smiles, result) VALUES
  ('CCN(Cc1ccc(F)cc1)c1cc(Cl)c(CO)c(Cl)c1', '6.34 µM'),
  ('Cc1csc(-c2nnc(Nc3ccc(Oc4ncccc4-c4ccnc(N)n4)cc3)c3ccccc23)c1', '> 100 µM'),
  ('COc1ccc(-c2cn[nH]c2-c2cc(OC)c(OC)c(OC)c2)cc1', '30.3 µM'),
  ('Nc1c(C(=O)Nc2cccc(C(F)(F)F)c2)sc2nc3c(cc12)CCCCC3', '3.01 µM');

Prompt: Value lookup for TGI; key = `CN1CCN(Cc2ccc(NC(=O)c3cncc(C#Cc4cnc5ccc(N6CCSCC6)nn45)c3)cc2C(F)(F)F)CC1`
Response: 0.302 µM

---

tested on: SNB-19 CNS; assay: NCI tumour cell line growth inhibition, 48 h
EXPERIMENTAL READOUT: GI50

Study these solved cases before continuing.
INSERT INTO results (cpd_smiles, system_tested, result) VALUES
  ('N#Cc1c(-c2ccccc2Cl)cc(-c2ccc3ccccc3c2)[nH]c1=O', 'SNB-19 CNS', '18.5 µM'),
  ('O=c1oc2ccc(-c3ccc(F)cc3F)cc2c(=O)n1-c1ccc(F)cc1', 'SNB-19 CNS', '3.58 µM'),
  ('COc1cccc2nc(Nc3ccc(F)c(NC(=O)c4ccc(CN5CCN(C)CC5)c(C(F)(F)F)c4)c3)ccc12', 'SNB-19 CNS', '17.2 µM');

Attention now turns to another entry.
Prompt: Value lookup for GI50; key = `N#Cc1ccc(/C=N/NC(=O)c2[nH]c3ccc(Br)cc3c2-c2ccccc2)o1`
Response: 0.394 µM
